target: 5-lipoxygenase of the peritoneal leukocytes of rabbits (PMNs) (Oryctolagus cuniculus); construct: metabolism of ^14 C-AA in the peritoneal PMNs of rabbits; endogenous in cells; host or cells: rabbit peritoneal polymorphonuclear leukocytes (suspension); experiment: Inhibition of the 5-lipoxygenase of the peritoneal leukocytes of rabbits (PMNs), metabolism of 14C-arachidonate; format: cell-based; conditions: rabbit peritoneal PMNs; LTB4 formation; n.i. = no inhibition; read-out: IC50 in the PMNs, LTB4
pIC50: −log10 of the molar value.
property: pIC50

{"compound": "CC(=NNc1nccs1)c1cccs1 [Example 3d]", "pIC50": 5.70}

(a) CC(=NNc1nccs1)c1ccco1 [Example 3c]
(b) NC(=NNc1ccccc1)c1ccccc1 [Example 21]
Q) Which one would you say has the larger pIC50 value: a , or b ? # answer = label of selected item
A) a
(a: 5.70, b: 5.00)

* * *

assay: Acute toxicity, intraperitoneal route; conditions: mouse, in vivo, ip, male Swiss mice, in DMSO, 14 days observation, with confidence interval, read-out: Parenteral LD50, male mice
property: LD50 at 336 h (mg/kg)
# value in mg/kg; strip the unit string

Q) Identify LD50 at 336 h associated with the molecule CC(=NNc1nccs1)c1cccs1
A) 105

* * *

biological target: 5-lipoxygenase of the peritoneal leukocytes of rabbits (PMNs) (Oryctolagus cuniculus); construct: metabolism of ^14 C-AA in the peritoneal PMNs of rabbits; endogenous in cells; host or cells: rabbit peritoneal polymorphonuclear leukocytes (suspension); experiment: Inhibition of the 5-lipoxygenase of the peritoneal leukocytes of rabbits (PMNs), metabolism of 14C-arachidonate; type: cell-based; conditions: rabbit peritoneal PMNs; 5 HETE formation; n.i. = no inhibition; read-out: IC50 in the PMNs, 5 HETE
property: IC50 (µM)

{"compound": "CC(=NNc1nccs1)c1cccs1 [Example 3]", "study target": "5-lipoxygenase of the peritoneal leukocytes of rabbits (PMNs) (Oryctolagus cuniculus)", "unit descriptor": "µM", "IC50": 18}
{"compound": "c1ccc2c(c1)CCCC2=NNc1nccs1 [Example 7a]", "study target": "5-lipoxygenase of the peritoneal leukocytes of rabbits (PMNs) (Oryctolagus cuniculus)", "unit descriptor": "µM", "IC50": 5}
{"compound": "NC(=NNc1ccccc1)c1ccccc1 [Example 21]", "study target": "5-lipoxygenase of the peritoneal leukocytes of rabbits (PMNs) (Oryctolagus cuniculus)", "unit descriptor": "µM", "IC50": 20}
{"compound": "CC(=NNc1nccs1)c1cccs1 [Example 3a]", "study target": "5-lipoxygenase of the peritoneal leukocytes of rabbits (PMNs) (Oryctolagus cuniculus)", "unit descriptor": "µM", "IC50": 15}

(P) CC(=NNc1nccs1)c1ccco1 [Example 3c]
(Q) c1ccc2c(c1)CCCC2=NNc1nccs1 [Example 7]
(R) CN1CCN(C(=NNc2ccccc2)c2ccccc2)CC1 [Example 23]
Q) Give the ascending ranking of the items by reported IC50. Hello, could you send the labels back in the order asked? Thank you.
A) Q, P, R
(Q: 6 µM, P: 10 µM, R: 25 µM)

* * *

test system: prostanoids; assay: Inhibition of the metabolism of 14C-arachidonate in the blood platelets of rabbits: prostanoids route (TxB2, HHT); format: cell-based; conditions: Oryctolagus cuniculus, Platelet, rabbit blood platelets; HHT; read-out: IC50 in the blood platelets, HHT
property: IC50 (µM)

(a) CN1CCN(C(=NNc2ccccc2)c2ccccc2)CC1
(b) c1ccc2c(c1)CCCC2=NNc1nccs1
(c) NC(=NNc1ccccc1)c1ccccc1
Q) Sort the 3 compounds by IC50; largest first, smallest last. Rank them, then answer with their labels in that order.
A) a, b, c

* * *

biological target: 12-lipoxygenase (Oryctolagus cuniculus); construct: metabolism of ^14 C-Arachidonate in the blood platelets of rabbits; endogenous in cells; test: Inhibition of the metabolism of 14C-arachidonate in the blood platelets of rabbits: 12-lipoxygenase route (12-HETE); settings: rabbit blood platelets; 12 HETE; n.i. = no inhibition
Sequence (G1U492 1-663): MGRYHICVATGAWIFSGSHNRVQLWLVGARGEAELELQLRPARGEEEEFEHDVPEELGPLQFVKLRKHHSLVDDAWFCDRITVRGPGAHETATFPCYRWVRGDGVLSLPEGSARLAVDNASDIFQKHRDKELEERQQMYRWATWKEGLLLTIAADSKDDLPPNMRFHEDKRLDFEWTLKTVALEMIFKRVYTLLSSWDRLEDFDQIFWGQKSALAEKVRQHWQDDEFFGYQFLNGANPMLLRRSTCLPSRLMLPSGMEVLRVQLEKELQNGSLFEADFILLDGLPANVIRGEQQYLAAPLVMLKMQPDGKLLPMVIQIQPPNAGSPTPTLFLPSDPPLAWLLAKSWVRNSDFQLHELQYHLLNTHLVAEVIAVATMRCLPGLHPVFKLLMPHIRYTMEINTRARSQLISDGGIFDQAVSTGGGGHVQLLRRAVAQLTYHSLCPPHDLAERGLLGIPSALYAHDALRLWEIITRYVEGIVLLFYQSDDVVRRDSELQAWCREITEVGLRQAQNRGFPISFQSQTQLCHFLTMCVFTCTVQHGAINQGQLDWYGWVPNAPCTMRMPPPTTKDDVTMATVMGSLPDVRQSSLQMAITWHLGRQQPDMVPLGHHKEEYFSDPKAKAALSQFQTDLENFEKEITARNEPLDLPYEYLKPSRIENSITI
property: IC50 (µM)

Some entries whose results are on file:
{"molecule": "CC(=NNc1nccs1)c1cccs1 [Example 3a]", "property": "IC50", "unit descriptor": "µM", "result value": 30}
{"molecule": "CC(=NNc1nccs1)c1cccs1 [Example 3d]", "property": "IC50", "unit descriptor": "µM", "result value": 22}
{"molecule": "CC(=NNc1nccs1)c1cccs1 [Example 3]", "property": "IC50", "unit descriptor": "µM", "result value": 3}
{"molecule": "CC(=NNc1nccs1)c1cccs1 [Example 3b]", "property": "IC50", "unit descriptor": "µM", "result value": 10}

(a) c1ccc2c(c1)CCCC2=NNc1nccs1
(b) CN1CCN(C(=NNc2ccccc2)c2ccccc2)CC1
(c) CC(=NNc1nccs1)c1ccco1
Q) // smallest IC50 at index 0, largest at the end # format: label list in the order the request specifies
A) c, b, a

* * *

assay: Acute toxicity, intraperitoneal route; settings: mouse, in vivo, ip, female Swiss mice, in DMSO, 14 days observation, with confidence interval, read-out: Parenteral LD50, female mice
property: LD50 at 336 h (mg/kg)
I only need the number, in mg/kg, no unit after it.

Q) Give the value of LD50 at 336 h reported for the following: CC(=NNc1nccs1)c1cccs1
A) 155

* * *

Below, each of the compounds is paired with its reported IC50 value.
system: 15 HETE; assay: Metabolism of 14C-arachidonate in rabbit peritoneal PMNs: 15 HETE; assay type: cell-based; settings: 15 HETE formation, n.i. = no inhibition
Quick reminder: number only, in µM, skip the unit.

{"cpd smiles": "CC(=NNc1nccs1)c1cccs1", "study target": "15 HETE", "property": "IC50", "unit descriptor": "µM", "result value": 40}

We now examine a further compound.
Q) GET IC50 where system = 15 HETE and item = c1ccc2c(c1)CCCC2=NNc1nccs1
A) 2

* * *

Target: 5-lipoxygenase of the peritoneal leukocytes of rabbits (PMNs) (Oryctolagus cuniculus, UniProt G1SNX0)
Construct: metabolism of ^14 C-AA in the peritoneal PMNs of rabbits; endogenous in cells; host or cells: rabbit peritoneal polymorphonuclear leukocytes (suspension)
Sequence (G1SNX0 1-674): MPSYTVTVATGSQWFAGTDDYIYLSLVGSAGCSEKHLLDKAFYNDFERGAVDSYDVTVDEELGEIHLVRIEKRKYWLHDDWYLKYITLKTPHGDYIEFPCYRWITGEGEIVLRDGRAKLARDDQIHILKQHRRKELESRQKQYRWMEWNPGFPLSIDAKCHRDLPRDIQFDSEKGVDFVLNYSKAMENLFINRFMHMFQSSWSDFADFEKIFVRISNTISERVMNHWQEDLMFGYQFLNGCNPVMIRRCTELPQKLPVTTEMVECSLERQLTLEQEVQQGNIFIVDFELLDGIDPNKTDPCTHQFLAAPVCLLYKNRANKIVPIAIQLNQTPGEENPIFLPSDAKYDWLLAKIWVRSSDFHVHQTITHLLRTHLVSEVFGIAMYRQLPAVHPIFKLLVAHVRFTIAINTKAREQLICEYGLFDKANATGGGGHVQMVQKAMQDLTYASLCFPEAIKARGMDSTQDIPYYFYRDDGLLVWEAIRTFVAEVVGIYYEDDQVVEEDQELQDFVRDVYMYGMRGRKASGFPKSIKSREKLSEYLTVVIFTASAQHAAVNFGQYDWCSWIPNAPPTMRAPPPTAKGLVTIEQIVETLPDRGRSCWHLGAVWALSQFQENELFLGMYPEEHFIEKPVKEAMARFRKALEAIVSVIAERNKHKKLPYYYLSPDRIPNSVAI
Assay: Inhibition of the 5-lipoxygenase of the peritoneal leukocytes of rabbits (PMNs), metabolism of 14C-arachidonate
Format: cell-based
Conditions: rabbit peritoneal PMNs; LTB4 formation; n.i. = no inhibition; read-out: IC50 in the PMNs, LTB4
Experimental: 1.1. Inhibition of the 5-lipoxygenase of the peritoneal leukocytes of rabbits (PMNs) Preparation of a suspension of rabbit PMNs The peritoneal leukocytes of rabbits are obtained and prepared according to the technique described by P. Borgeat and B. Samuelson (J. Biol. Chem. 254, n° 8, p. 2643, 1979). Metabolism of ^14 C-Arachidonate […] The percent inhibition of the 5-lipoxygenase is determined as a function of the concentration of each compound. […]
pIC50: −log10 of the molar value.
property: pIC50

{"molecule": "c1ccc2c(c1)CCCC2=NNc1nccs1", "pIC50": 5.10}
{"molecule": "CC(=NNc1nccs1)c1cccs1 [Example 3b]", "pIC50": 4.89}
{"molecule": "CC(=NNc1nccs1)c1cccs1 [Example 3]", "pIC50": 5.15}

(a) CN1CCN(C(=NNc2ccccc2)c2ccccc2)CC1
(b) CCOC(=O)CCCC(C)=NNc1nccs1 [Example 1a]
Q) Field: lower pIC50 | Options: a / b Lab note: record the label of whichever item you select.
A) a

* * *

System: prostanoids
Assay: Inhibition of the metabolism of 14C-arachidonate in the blood platelets of rabbits: prostanoids route (TxB2, HHT)
Assay type: cell-based
Conditions: rabbit blood platelets; HHT; read-out: IC50 in the blood platelets, HHT
Method: 1.2. Inhibition of the metabolism of ^14 C-Arachidonate in the blood platelets of rabbits Preparation of a platelet-rich plasma (PRP) A 12 ml blood sample is taken, by the intracardiac route, on ACD (anticoagulant consisting of an aqueous solution containing 0.27 g citric acid, 0.5 g disodium citrate and 0.02 g glucose per 20 ml water), at a rate of 1 volume ACD per 6 volumes blood. The blood is centrifuged at 200 g for 10 minutes and the supernatant (PRP) is collected. […]
pIC50: −log10 of the molar value.
property: pIC50

{"compound": "CC(=NNc1nccs1)c1cccs1 [Example 3]", "property": "pIC50", "result value": 4.70}

(a) c1ccc2c(c1)CCCC2=NNc1nccs1
(b) CCOC(=O)CCCC(C)=NNc1nccs1
Q) Consider entries a and b . Which has the numerically lower pIC50? Write down the label attached to your selection.
A) b

* * *

system: 15 HETE; assay: Metabolism of 14C-arachidonate in rabbit peritoneal PMNs: 15 HETE; assay type: cell-based; conditions: Oryctolagus cuniculus, 15 HETE formation, n.i. = no inhibition
pIC50: −log10 of the molar value.
property: pIC50

{"cpd smiles": "c1ccc2c(c1)CCCC2=NNc1nccs1", "study target": "15 HETE", "pIC50": 5.70}
{"cpd smiles": "CC(=NNc1nccs1)c1cccs1", "study target": "15 HETE", "pIC50": 4.40}
{"cpd smiles": "CC(Cn1ccnc1)=NNc1nccs1", "study target": "15 HETE", "pIC50": 5.70}
